molecular target: ScLsb3; assay: SPOT peptide array binding signal intensity (averaged, normalized) (arbitrary units (background-subtracted, floor 0; scale differs between SH3 domains)); higher = stronger binding of the SH3 domain to the peptide
// thresholds for SPOT peptide array binding signal intensity classes: 0 = under 100, 1 = from 100 up to 1000, 2 = 1000 and over

For orientation, consider the following solved cases.
MAMRPIPPLPTESEY ... 2
RRRRRPHRIERPLSN ... 1
SPLGAPPPPPHKDHL ... 0
KMSRSPPRPPSLKII ... 1
FVLRYYILIPHEQWD ... 0
ISNFVPPNLPMRRFK ... 2
PVLPPPRSPNRPTLS ... 2
TKIRRRPQQPLTDFT ... 1

*Q* Pick a category. Item: `VKPRQLFPIPLNKVD`
*A* 0

*Q* And `ATNVPVAPPPPPASL` ?
*A* 0

*Q* And `QRKSLRRPTLSKPAV` ?
*A* 1
